The reader will find reported glycan array binding signal (z-score) values listed item by item below.
molecular target: GalNAc(b1-4)GlcNAc(b1-2)Man(a1-3)[GalNAc(b1-4)GlcNAc(b1-2)Man(a1-6)]Man(b1-4)GlcNAc(b1-4)GlcNAc; assay: glycan array binding signal (z-score within array); higher = stronger binding; settings: glycan notation: IUPAC condensed, linker removed
This is one part of a sample in which the strongest signals are shown more often than they occur.

# annotated cases, reported glycan array binding signal (z-score) shown
>  <binder>
rCnSL-proB (Clitocybe nebularis) (protein) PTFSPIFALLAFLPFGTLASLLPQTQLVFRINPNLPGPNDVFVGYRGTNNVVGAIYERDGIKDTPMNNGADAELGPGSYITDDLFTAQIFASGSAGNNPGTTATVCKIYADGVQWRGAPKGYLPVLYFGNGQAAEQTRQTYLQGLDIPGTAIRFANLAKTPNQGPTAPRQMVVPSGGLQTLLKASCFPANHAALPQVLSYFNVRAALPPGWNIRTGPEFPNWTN

>  <glycan array binding signal (z-score)>
3.38

$$$$
>  <binder>
SUN4 (Saccharomyces cerevisiae), P53616 (protein) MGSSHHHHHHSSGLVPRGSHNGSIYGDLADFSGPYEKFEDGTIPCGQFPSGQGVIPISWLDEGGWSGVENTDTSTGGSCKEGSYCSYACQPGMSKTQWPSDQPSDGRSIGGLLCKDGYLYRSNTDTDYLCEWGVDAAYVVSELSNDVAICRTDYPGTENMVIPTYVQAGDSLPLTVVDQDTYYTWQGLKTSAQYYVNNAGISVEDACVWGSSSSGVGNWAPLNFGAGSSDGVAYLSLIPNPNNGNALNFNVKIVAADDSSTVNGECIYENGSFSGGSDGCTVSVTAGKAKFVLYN

>  <glycan array binding signal (z-score)>
4.51

$$$$

Proceeding to the next binder to report its glycan array binding signal (z-score).
Notebook: ERGIC1-EDTA (Homo sapiens), Q969X5 (protein) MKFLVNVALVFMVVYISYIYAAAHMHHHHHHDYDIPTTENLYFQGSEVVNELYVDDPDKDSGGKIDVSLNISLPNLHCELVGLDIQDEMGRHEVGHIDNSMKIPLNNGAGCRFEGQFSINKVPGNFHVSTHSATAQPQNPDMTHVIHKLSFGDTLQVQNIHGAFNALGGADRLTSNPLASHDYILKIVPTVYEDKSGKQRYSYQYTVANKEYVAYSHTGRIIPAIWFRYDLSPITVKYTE , glycan array binding signal (z-score) read as 0.638

These data points were gathered from the supplement of paper PMC8728848.
